molecular target: KLKB1 (Homo sapiens (Human))
Sequence (P03952 391-638 limits assumed): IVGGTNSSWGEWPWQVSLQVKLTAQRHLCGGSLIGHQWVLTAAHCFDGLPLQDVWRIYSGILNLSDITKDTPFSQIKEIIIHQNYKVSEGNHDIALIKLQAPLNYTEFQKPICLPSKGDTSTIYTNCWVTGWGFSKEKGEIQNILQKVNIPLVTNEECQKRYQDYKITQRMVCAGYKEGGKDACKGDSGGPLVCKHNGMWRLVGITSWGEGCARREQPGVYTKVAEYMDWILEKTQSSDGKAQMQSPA
Sequence (P03952 20-390 partner limits assumed): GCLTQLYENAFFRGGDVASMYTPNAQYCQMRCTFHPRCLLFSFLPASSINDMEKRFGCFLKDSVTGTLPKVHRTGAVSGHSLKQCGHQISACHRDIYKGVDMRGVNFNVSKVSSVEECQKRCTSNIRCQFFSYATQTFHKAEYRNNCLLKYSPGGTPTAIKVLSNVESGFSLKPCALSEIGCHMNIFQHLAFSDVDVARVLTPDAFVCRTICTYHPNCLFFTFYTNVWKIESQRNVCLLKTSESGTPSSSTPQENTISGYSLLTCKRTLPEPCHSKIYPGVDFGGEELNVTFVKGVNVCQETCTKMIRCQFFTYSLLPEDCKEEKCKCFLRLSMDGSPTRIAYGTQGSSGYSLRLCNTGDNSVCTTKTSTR
pKi: −log10 of the molar value.
// pKi lookup, one value per entry
metricName: pKi

1) Cc1cc2c(c(N)n1)CC[C@H]2NC(=O)c1cnn(Cc2ccc(N3CC4C(C3)C4(F)F)nc2C)c1 (stereo partly drawn) [Example 10] : 9.40
2) Cc1nc(N2CC3C(C2)C3(F)F)ccc1Cn1cc(C(=O)N[C@@H]2CCc3c2ccnc3N)cn1 (stereo partly drawn) [Example 9] : 9.40
3) Cc1cc2c(c(N)n1)CC[C@H]2NC(=O)c1cn(Cc2cnc(N3CC4CC4C3)nc2C)nn1 (stereo partly drawn) [Example 18] : 9.30
4) Cc1nc(N2CC3CC3C2)ncc1Cn1cc(C(=O)N[C@@H]2CCc3c2ccnc3N)cn1 (stereo partly drawn) [Example 11] : 8.82
5) Cc1cc2c(c(N)n1)CC[C@H]2NC(=O)c1cnn(Cc2cnc(N3CC4CC4C3)nc2C)c1 (stereo partly drawn) [Example 17] : 9.30
6) Cc1nc(N2C[C@@H]3[C@H](CO)[C@@H]3C2)ccc1Cn1cc(C(=O)N[C@@H]2CCc3c2ccnc3N)cn1 [Example 12] : 9.22
7) Cc1nc(N2CC3CC3C2)ncc1Cn1cc(C(=O)N[C@@H]2CCc3c2ccnc3N)nn1 (stereo partly drawn) [Example 16] : 8.66
8) Cc1nc(N2C[C@@H]3[C@H](C#N)[C@@H]3C2)ccc1Cn1cc(C(=O)N[C@@H]2CCc3c2ccnc3N)cn1 [Example 13] : 9.52
9) Cc1nc(N2CC3CC3C2)ccc1Cn1cc(C(=O)N[C@@H]2CCc3c2ccnc3N)cn1 (stereo partly drawn) [Example 1] : 9.52
